These data points were gathered from patent US20150337042A1.

target_system: T1, wild type human EGFR on cells (A431, NHEK, SCC-15, H292) (human, UniProt P00533 25-1210)
T1 construct: Endogenous receptor of human cell lines and keratinocytes said to express wild type EGFR; also called wild type EGFR; wtEGFR
experimental_protocol: FACS binding to normal human epidermal keratinocytes (NHEK), AlexaFluor 488 secondary antibody
property_measured: EC50 (read off the curve)

Value of measured EC50 (read off the curve) for the entry Antibody G (AbG) (antibody, V domains shown, Full length IgG1) VH: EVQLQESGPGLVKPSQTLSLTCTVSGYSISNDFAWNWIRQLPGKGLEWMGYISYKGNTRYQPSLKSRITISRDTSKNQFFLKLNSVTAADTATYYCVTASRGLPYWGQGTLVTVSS VL: DIQMTQSPSSMSVSVGDRVTITCHSSQDITYNIGWLQQKPGKSFKGLIYHGANLDDGVPSRFSGSGSGTDYTLTISSLQPEDFATYYCVQYDEFPWTFGGGTKLEIK : ~40 nM
